- target-desc: recombinant human GSK-3β (Homo sapiens)
- Sequence (P49841 whole entry): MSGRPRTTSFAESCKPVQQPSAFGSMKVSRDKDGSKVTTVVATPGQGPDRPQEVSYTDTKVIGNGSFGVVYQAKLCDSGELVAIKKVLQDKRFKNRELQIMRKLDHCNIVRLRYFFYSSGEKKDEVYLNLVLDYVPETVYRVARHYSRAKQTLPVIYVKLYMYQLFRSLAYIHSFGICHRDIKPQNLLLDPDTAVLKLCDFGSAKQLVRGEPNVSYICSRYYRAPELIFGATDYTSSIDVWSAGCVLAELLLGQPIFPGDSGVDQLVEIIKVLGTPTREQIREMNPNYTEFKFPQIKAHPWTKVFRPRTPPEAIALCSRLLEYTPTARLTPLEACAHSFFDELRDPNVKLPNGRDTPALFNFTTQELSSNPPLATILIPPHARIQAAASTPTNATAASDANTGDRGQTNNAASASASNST
- experiment-description: Determination of Inhibition of GSK-3 Activity (phospho-glycogen synthase peptide-2 phosphorylation, [γ-33P]ATP, scintillation counting)
- Format: biochemical
- measurement-setup: group stated as IC50<100 nM; read-out: GSK-3 inhibitor activity values (IC50 values)
pIC50: −log10 of the molar value.
value-type: pIC50

Query: pIC50; subject: CC(C)(C)CC(=O)NCCn1c(-c2sccc2Cl)c(-c2cn[nH]c2)c2nc[nH]c(=O)c21 > 7.00
